Data provenance is PubChem BioAssay (NCI).

Answer each item with its documented TGI.
system: SF-539 CNS; test: NCI tumour cell line growth inhibition, 48 h
*1 amine or outer side, *2 acyl side, *3 side chain or, on linkers, in order; H or OH if unused. Where a SMILES comes first, the peptide text is derived from it. [ ]: non-standard residue; d: D form. The star is where a group is joined. X12 = NCCCCC(N[*:1])C(=O)CN1CCCC1C(=O)[*:2]; Pentadecanoyl = CCCCCCCCCCCCCCC(=O)*
Answers are plain numbers, in µM.

Recorded TGI, per entry:
INSERT INTO measurements (compound, endpoint_name, observed_result) VALUES
  ('C=C(C)[C@@H]1CC[C@@H]2C(=CC[C@]3(C)C([C@H](C)CC/C=C(/C)C(=O)O)CC[C@@]23C)[C@@]1(C)CCC(=O)O (some centres not stated)', 'TGI', 89),
  ('O=C(CSCC(=O)N/N=C\c1cccc(Br)c1)N/N=C\c1cccc(Br)c1', 'TGI', 50.8),
  ('O=C1c2ccccc2-c2c1c1ccccc1c(=O)n2CCCNCCO', 'TGI', 2.96),
  ('N#CSc1cc(-c2nc3ccccc3o2)ccc1N', 'TGI', 45.3),
  ('O=C(Nc1ccc(Oc2cccc(Cl)c2)c(Cl)c1)c1cccnc1', 'TGI', 7.54);

Here are 3 compounds. What values of TGI were reported for them?
1. CCN(CC)c1ccc(/C=C2/NC(=O)NC2=O)cc1
2. CCCCCCCCCCCCCCC(=O)NC(CCCCN)C(=O)CN1CCCC1C(=O)NCC(=O)NC(Cc1ccccc1)C(=O)N1CCCC1C(=O)NC(CO)C(=O)NC(Cc1ccc(O)cc1)C(=O)NC(CCCCN)C(=O)NC(CC(C)C)C(=O)NC(CCCN=C(N)N)C(=O)N1CCCC1C(=O)NCC(N)=O (configuration not stated) (Pentadecanoyl-[X12]GFPSYKLRPG-NH2; configuration not given here)
3. COc1ccc(C2C3=C(COC3=O)N(CCO)c3cc4c(cc32)CCC4)cc1OC (configuration not stated)

1: 53.6; 2: 59.9; 3: 6.43

Here are 3 compounds. What values of TGI were reported for them?
1. c1cc[c]([Sn]([O]c2cccc3cccnc23)([c]2ccccc2)[c]2ccccc2)cc1
2. Nc1nn2cc(-c3ccccc3)[n+](CC(=O)c3ccccc3)c2s1
3. CN(C)CC(C)(C)C(=O)/C=C/c1ccccc1

0.0387
42.3
32.3

---

test system: ACHN renal; assay: NCI tumour cell line growth inhibition, 48 h
endpoint name: log10 of TGI (log10 of the value in µM)
Each number you see is log10 of TGI, and the unit inside the log is µM.

Recorded log10 of TGI, per entry:
INSERT INTO results (compound, endpoint_name, observed_result) VALUES
  ('COc1cccc2c1C(=O)c1c(O)c3c(c(O)c1C2=O)C[C@@](O)(C(=O)CO)CC3OC1CC(NCCCCC(OC(C)=O)OC(C)=O)C(O)C(C)O1 (some centres undefined)', 'log10 of TGI', -2.24),
  ('CC1=NNC(N)=N/C1=C\C(Sc1ccc(Cl)cc1)c1ccc(Cl)cc1Cl (centres undefined)', 'log10 of TGI', 1.46),
  ('O=C1c2ccccc2-c2c1c1ccccc1c(=O)n2CCCNCCO', 'log10 of TGI', -0.04);

Here are 7 compounds. What values of log10 of TGI were reported for them?
1. O=C1/C(=C/Cc2ccco2)N=C(c2ccccc2)N1c1nc2c(Cl)cc(Cl)cc2s1
2. O=C(N(C1=CCCC1)N(c1ccccc1)c1ccccc1)C(F)(F)F
3. C/C(=N\Nc1nc2ccccc2n1C)c1ccncn1
4. COc1ccc2c(-c3csc(-c4c[nH]c5ccccc45)n3)c[nH]c2c1
5. COc1ccc(OC)c(/C=C/C(=O)c2ccc(SC)cc2)c1
6. CO[C@H]1/C=C/C=C/C=C/C[C@H](OC(=O)[C@@H](C)NC(=O)C2CCCCC2)[C@H](C)[C@@H](O)/C(C)=C\CCC2=CC(=O)C=C(NC(=O)C1)C2=O
7. COc1ccc(C(=O)C(CN(C)C)c2ccccc2)cc1 (centres undefined)

1.87
1.59
1.49
1.23
1.58
0.12
0.69
